Tested Target: T1, Recombinant Human FGFR2 alpha (IIIc) Fc Chimera Protein, CF (R&D systems, 712-FR-050) (human, UniProt P21802 22-377)
T1 construct: bought; not shown: Fc part of the chimera
T1 sequence (P21802 22-377, change not shown): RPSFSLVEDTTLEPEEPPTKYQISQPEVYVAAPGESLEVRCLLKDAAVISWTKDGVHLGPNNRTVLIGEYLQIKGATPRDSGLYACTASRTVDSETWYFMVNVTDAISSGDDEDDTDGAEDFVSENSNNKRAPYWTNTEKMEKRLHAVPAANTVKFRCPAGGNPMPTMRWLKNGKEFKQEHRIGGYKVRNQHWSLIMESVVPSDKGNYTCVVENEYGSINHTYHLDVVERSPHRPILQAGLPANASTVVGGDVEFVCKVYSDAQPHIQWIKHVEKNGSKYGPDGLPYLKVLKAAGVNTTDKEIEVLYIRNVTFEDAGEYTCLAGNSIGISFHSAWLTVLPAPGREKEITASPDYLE
Assay Protocol: ELISA on plate-bound FGFR2-Fc
Description: First, 5 ng of Recombinant Human FGFR2 alpha (IIIc) Fc Chimera Protein (R&D systems, 712-FR-050) was immobilized in each well of a 96-well plate, and blocked with Pierce Protein-Free (PBS) Blocking Buffer (Thermo, 37572), and a peptide diluted with Can Get Signal Immunoreaction Enhancer Solution I (TOYOBO, NKB-101) was then added and reacted at room temperature for 3 hours. […]
Bridge positions count the residues as written; N and C are the ends. Ends that are not written are not given here. COCH2 = acetyl group that carries the bridge
Listed binders paired with reported ELISA luminescence signal at 10 nmol/L peptide, relative to SEQ ID NO: 47 (=1)

Here's what some known entries look like.
{"Binder": "YCFENYLDPEQYQYFIYFK(COCH2)Y (thioether 2-19) [cyclic peptide SEQ ID NO: 156]", "Experimental Value": "≥ 0.7 ratio"}
{"Binder": "YCEQNYLDPEQYQYFIYFK(COCH2)Y (thioether 2-19 (inferred)) [cyclic peptide SEQ ID NO: 175]", "Experimental Value": "≥ 0.7 ratio"}
{"Binder": "YCEENYLDAEQYQYFIYFK(COCH2)Y (thioether 2-19 (inferred)) [cyclic peptide SEQ ID NO: 329]", "Experimental Value": "≥ 0.7 ratio"}

-- ask Supply recorded ELISA luminescence signal at 10 nmol/L peptide, relative to SEQ ID NO: 47 (=1) for HCSQHQTTYYQIYAYLHAIK(COCH2)I (thioether 2-20 (inferred)) [cyclic peptide SEQ ID NO: 408] here.
-- reply 0.1 to 0.5 ratio

-- ask Entry YCEMNYLDPEQYQYFIYFK(COCH2)Y (thioether 2-19) [cyclic peptide SEQ ID NO: 349] needs its ELISA luminescence signal at 10 nmol/L peptide, relative to SEQ ID NO: 47 (=1) filled in; supply it.
-- reply ≥ 0.7 ratio

-- ask Give reported ELISA luminescence signal at 10 nmol/L peptide, relative to SEQ ID NO: 47 (=1) value for YCEGNYLDPEQYQYFIYFK(COCH2)Y (thioether 2-19) [cyclic peptide SEQ ID NO: 166]
-- reply ≥ 0.7 ratio

-- ask Give recorded ELISA luminescence signal at 10 nmol/L peptide, relative to SEQ ID NO: 47 (=1). YCHENYLDPEQYQYFHYFK(COCH2)Y (thioether 2-19) [cyclic peptide SEQ ID NO: 392]
-- reply ≥ 0.7 ratio

-- ask Look up and report measured ELISA luminescence signal at 10 nmol/L peptide, relative to SEQ ID NO: 47 (=1) for this entry: YCPENYLDPEQYQYFIYFK(COCH2)Y (thioether 2-19) [cyclic peptide SEQ ID NO: 152]
-- reply ≥ 0.7 ratio

-- ask Answer with the recorded ELISA luminescence signal at 10 nmol/L peptide, relative to SEQ ID NO: 47 (=1) for the binder listed here: YCEWNYLDPEQYQYFIYFK(COCH2)Y (thioether 2-19 (inferred)) [cyclic peptide SEQ ID NO: 173]
-- reply ≥ 0.7 ratio
